system tested: Cholecystokinin receptor (Homo sapiens) (UniProt P32239+P32238)
Sequence (P32238 whole entry, looked up): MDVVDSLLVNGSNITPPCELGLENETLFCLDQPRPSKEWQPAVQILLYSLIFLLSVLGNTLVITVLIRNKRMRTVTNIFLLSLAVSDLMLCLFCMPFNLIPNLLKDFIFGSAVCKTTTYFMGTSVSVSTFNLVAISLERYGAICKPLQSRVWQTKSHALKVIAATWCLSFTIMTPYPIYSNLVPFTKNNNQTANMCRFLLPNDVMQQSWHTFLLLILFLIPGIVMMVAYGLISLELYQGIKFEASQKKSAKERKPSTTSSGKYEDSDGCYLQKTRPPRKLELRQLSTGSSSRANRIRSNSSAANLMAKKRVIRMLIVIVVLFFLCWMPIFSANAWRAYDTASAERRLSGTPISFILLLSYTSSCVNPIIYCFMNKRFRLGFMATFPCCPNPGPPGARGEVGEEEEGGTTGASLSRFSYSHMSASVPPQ
Sequence (P32239 whole entry, looked up): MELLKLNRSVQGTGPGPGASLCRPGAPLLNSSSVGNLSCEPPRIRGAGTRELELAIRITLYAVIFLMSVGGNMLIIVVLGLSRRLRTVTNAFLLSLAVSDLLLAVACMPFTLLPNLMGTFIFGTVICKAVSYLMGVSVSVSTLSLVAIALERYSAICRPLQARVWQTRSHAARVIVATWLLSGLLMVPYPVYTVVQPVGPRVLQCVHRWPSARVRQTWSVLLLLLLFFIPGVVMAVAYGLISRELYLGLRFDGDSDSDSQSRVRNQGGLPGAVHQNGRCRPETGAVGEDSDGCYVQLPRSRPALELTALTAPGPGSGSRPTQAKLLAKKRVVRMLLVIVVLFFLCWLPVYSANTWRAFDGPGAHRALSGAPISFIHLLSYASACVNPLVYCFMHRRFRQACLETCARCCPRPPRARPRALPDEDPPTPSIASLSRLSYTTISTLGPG
method description: Selectivity ratio between IC50 values of CCK-A and CCK-B
Format: protein assay
Item-by-item account of Selectivity ratio
Would you mind answering with just the numeric figure?

Examples with answers:
compound: CC(C)N(C(=O)CN1C(=O)C(Cc2n[nH]c3ccccc23)C(=O)N(c2ccccc2)c2ccccc21)c1ccccc1 (configuration not stated)
readout number: 2
--
compound: COc1ccc(N(C(=O)CN2C(=O)C(Cc3c[nH]c4ccccc34)C(=O)N(c3ccccc3)c3ccccc32)C(C)C)cc1 (configuration not stated)
readout number: 480
--
compound: COc1ccc(N(C(=O)CN2C(=O)C(C)(Cc3c[nH]c4ccccc34)C(=O)N(c3ccccc3)c3ccccc32)C(C)C)cc1 (configuration not stated)
readout number: 2090
--
compound: COc1ccc(N(C(=O)CN2C(=O)C(Cc3nn(C)c4ccccc34)C(=O)N(c3ccccc3)c3ccccc32)C(C)C)cc1 (configuration not stated)
readout number: 60
--
compound: COc1ccc(N(C(=O)CN2C(=O)C(C)(Cc3n[nH]c4ccccc34)C(=O)N(c3ccccc3)c3ccccc32)C(C)C)cc1 (configuration not stated)
readout number: 5100

Sample CC(C)N(C(=O)CN1C(=O)C(C)(Cc2n[nH]c3ccccc23)C(=O)N(c2ccccc2)c2ccccc21)c1ccccc1 (configuration not stated) , system: Cholecystokinin receptor (Homo sapiens) (UniProt P32239+P32238). Its Selectivity ratio is 20

Sample COc1ccc(N(C(=O)CN2C(=O)C(Cc3n[nH]c4ccccc34)C(=O)N(c3ccccc3)c3ccccc32)C(C)C)cc1 (configuration not stated) , system: Cholecystokinin receptor (Homo sapiens) (UniProt P32239+P32238). Its Selectivity ratio is 50

###

system tested: Cholecystokinin receptor type A (Homo sapiens)
Sequence (P32238 whole entry): as the sequence (P32238 whole entry, looked up) above
readout: IC50 (nM)
Number in nM, nothing else.

Examples with answers:
compound: COc1ccc(N(C(=O)CN2C(=O)C(Cc3nn(C)c4ccccc34)C(=O)N(c3ccccc3)c3ccccc32)C(C)C)cc1 (stereo not drawn)
value units: nM
IC50: 42.7
//
compound: COc1ccc(N(C(=O)CN2C(=O)C(Cc3nn(Cc4ccccc4)c4ccccc34)C(=O)N(c3ccccc3)c3ccccc32)C(C)C)cc1 (stereo not drawn)
value units: nM
IC50: 309

The measured IC50 associated with CC(C)N(C(=O)CN1C(=O)C(C)(Cc2n[nH]c3ccccc23)C(=O)N(c2ccccc2)c2ccccc21)c1ccccc1 (stereo not drawn) reads 120
